# measurementDescription: small molecules captured by biotinylated probe aFSTL3 – biochemical, small-molecule microarray, fluorescence 635/667, stem cell growth factor project, primary screen (AID 1064);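 note: measures binding of the biotinylated anti-FSTL3 antibody to printed compounds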
# reportedConditions: higher = more signal
If the reported composite z-score equals or exceeds 0.3, assign satisfied. If not, assign not satisfied.

compound | category
CCOC(=O)C[C@H]1[C@H](OC(=O)Cc2ccc3c(c2)OCO3)[C@@H](NC(=O)c2ccc3ccccc3n2)c2cc(OCCCO)ccc2N1C(=O)Cc1ccc(OC)cc1 | not satisfied
COc1ccc(C(=O)Nc2ccc3c(c2)[C@@]2(O[C@H](CCO)[C@@H]([Si](C)(C)c4ccc(OC)cc4)[C@@H]2C)C(=O)N3Cc2ccccc2)cc1 | not satisfied
CC[C@@H]1C=C(C(=O)O)[C@H](c2ccc(OC)cc2)N1S(=O)(=O)c1ccc(C)cc1 | not satisfied
C[N+](C)(C)CCCC[C@@H]1NC(=O)[C@@H]2C[C@H](C(=O)NCc3ccc(F)cc3)[C@H](c3ccc(O)cc3)N2C1=O | satisfied
Cc1ccccc1C(O)C1C=CC2C(=O)N(c3ccccc3)C(=O)C2N1Nc1ccccc1 (stereo unspecified) | satisfied

We now examine a further compound.
Threshold query (composite z-score >= 0.3) on O=C1[C@@H]2[C@@H](CC(COc3ccccc3)=C([C@H](O)CCc3ccccc3)[C@@H]2CO)C(=O)N1Cc1ccccc1
not satisfied

###

# measurementDescription: probe aCHRDL2 binding to arrayed compounds – biochemical, biotinylated probe, 635/667 nm fluorescence, primary screen (AID 1100)
# reportedConditions: small-molecule microarray, higher = more signal
Given measured composite z-score, output Criterion met if it is greater than or equal to 0.02 and Criterion not met if not.

Previously resolved entries follow.
itemSmiles | category
O=C1N(CCS(=O)(=O)c2ccccc2)c2ccccc2C[C@]12N=C(c1ccc(OCCCO)cc1)O[C@@H]2c1ccccc1 | Criterion met
CCCC=C(CCC)[C@@H](NC(=O)OCC(C)C)c1ccc(C(=O)OC)cc1 | Criterion not met
CCCCCCc1nc(-c2ccc(-c3ccc(Cl)c(Cl)c3)o2)cc2c1[Si](C(C)C)(C(C)C)OC2 | Criterion met

Please tell me: is the compound COc1ccc([Si](C)(C)[C@H]2[C@H](CC(=O)N3Cc4ccccc4C[C@H]3CO)O[C@@]3(C(=O)N(c4ccccc4)c4ccccc43)[C@@H]2C)cc1 at or over 0.02 in terms of composite z-score?
Criterion not met

Check if composite z-score >= 0.02 (inclusive). Item: COc1ccc([Si](C)(C)[C@H]2[C@H](CCO)O[C@@]3(C(=O)N(Cc4ccc(NC(=O)[C@H](C)O)cc4)c4ccccc43)[C@@H]2C)cc1
Criterion met

Answer whether composite z-score of C=C(CCCC)/C(=C/C[C@H](OC(=O)c1ccncc1)c1ccccc1OCCO)c1cc(C(=O)OC)ccc1OC is greater than or equal to 0.02.
Criterion met

Form field: composite z-score at least 0.02? Entry: CCOC(=O)C[C@H]1[C@H](OC(=O)c2ccccc2-c2ccccc2)[C@@H](NC(=O)c2ccc3ccccc3c2)c2cc(OCCCO)ccc2N1C(=O)Cc1ccc(OC)cc1
Criterion met

###

# testSystem: Torsin-1A (Homo sapiens) (UniProt O14656)
# Sequence (O14656 whole entry, looked up): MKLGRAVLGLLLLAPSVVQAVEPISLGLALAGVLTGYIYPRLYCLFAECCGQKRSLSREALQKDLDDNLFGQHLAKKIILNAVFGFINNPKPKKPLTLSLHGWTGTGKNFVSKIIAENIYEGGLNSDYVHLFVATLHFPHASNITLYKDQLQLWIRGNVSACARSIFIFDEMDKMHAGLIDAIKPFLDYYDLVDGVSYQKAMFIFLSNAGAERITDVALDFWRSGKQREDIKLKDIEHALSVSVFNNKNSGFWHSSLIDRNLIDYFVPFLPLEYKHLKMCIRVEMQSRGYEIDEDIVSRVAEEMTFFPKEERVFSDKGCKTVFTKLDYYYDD
# measurementDescription: TOR1A wild-type binding on microarray – cell lysate, small-molecule microarray, lysate, 635/667 nm, primary screen (AID 1149)
# reportedConditions: COS7 hTOR1A-WT lysate, 635 nm fluorescence, higher = more signal
Decide by composite z-score: equal to or exceeding -0.08 means YES, less means NO.

Known results for compounds:
compound | category
C=CCOC(=O)[C@H]1[C@@H]2C(=O)O[C@@H](c3ccccc3)[C@@H](c3ccccc3)N2[C@@H](c2ccc(OCCOC(=O)[C@@H]3C[C@@H]4C(=O)N[C@@H](CCCC[N+](C)(C)C)C(=O)N4[C@@H]3c3ccc(O)cc3)cc2)[C@]12C(=O)Nc1ccc(I)cc12 | YES
CN(C)CCCCNC(=O)[C@H]1C[C@H]2C(=O)NCC(=O)N2[C@H]1c1ccc(O)cc1 | YES
CCCC[C@H]1C[C@@H]1[C@@H]1N(C(C)=O)[C@H](c2cccc(OC)c2)CC12CC2 | NO
COC(=O)[C@]1(CCC(=O)OC(C)(C)C)N=C(c2ccc(OCCCO)cc2)O[C@@H]1c1ccccc1N=[N+]=[N-] | YES
COC(=O)[C@@]1(Cc2ccc(F)cc2)[C@H]2c3cc(C(=O)N(C)C)n(C)c3C[C@H]2CN1C(=O)c1ccccc1 | YES
CN1C(=O)C2C(C1=O)C1C=C(CCCO)C2C(C2CC2)N1Cc1cccc(OC(F)(F)F)c1 (stereo unspecified) | YES
CCCNC(=O)[C@@]1(Sc2ccc(C)cc2)CC(=O)N(Cc2ccccc2Cl)[C@@H]1c1ccc(CO)cc1I | NO
CCCCN1CC=CC23O[C@@H]4/C=C\CCCOC(=O)C4[C@H]2C(=O)N(C(CO)C(C)C)[C@@H]3C1=O (stereo partly specified) | NO

Query compound follows.
Does the reported composite z-score for COc1ccc(C(=O)Nc2cccc(CN3C(=O)[C@]4(O[C@H](CC(=O)N5Cc6ccccc6C[C@H]5CO)[C@@H]([Si](C)(C)c5ccc(OC)cc5)[C@@H]4C)c4ccccc43)c2)cc1 fall at or above the -0.08 mark?
YES

###

# testSystem: Fibroblast growth factor 10 (Homo sapiens) (UniProt O15520)
# Sequence (O15520 whole entry, looked up): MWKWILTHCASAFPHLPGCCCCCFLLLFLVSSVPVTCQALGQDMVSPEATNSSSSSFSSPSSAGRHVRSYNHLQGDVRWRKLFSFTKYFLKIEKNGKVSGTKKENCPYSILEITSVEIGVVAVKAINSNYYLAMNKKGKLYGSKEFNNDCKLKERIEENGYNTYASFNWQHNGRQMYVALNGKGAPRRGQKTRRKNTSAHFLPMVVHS
# measurementDescription: compounds binding fibroblast growth factor 10 – biochemical, small-molecule microarray, 635 nm fluorescence, primary screen (AID 1102)
# reportedConditions: FGF10 binding, fluorescence 635 nm, higher = more signal
readout: composite z-score
Numbers only.

Give me composite z-score for each of these molecules, listed below.
1. COCC(=C=CC[C@H](O)c1ccccc1OCCO)C[C@H](O)COCc1ccccc1
2. COCCOC(=O)N1C(=O)[C@@]2(c3cc(C#CCCO)ccc31)[C@H](C(N)=O)[C@H]1C(=O)O[C@H](c3ccccc3)[C@H](c3ccccc3)N1[C@@H]2c1ccccc1OCCO
3. CCCCC(O)C1C=CC2C(=O)N(c3ccccc3)C(=O)C2N1Nc1ccc([N+](=O)[O-])cc1 (centres undefined)
4. C=CCOC(=O)[C@H]1[C@@H]2C(=O)O[C@@H](c3ccccc3)[C@@H](c3ccccc3)N2[C@@H](c2ccc(OCCOC(=O)[C@@H]3C[C@@H]4C(=O)N[C@@H](CCCCNC(C)=O)C(=O)N4[C@@H]3c3cccc(OCCO)c3)cc2)[C@]12C(=O)Nc1ccccc12

1: 1.49; 2: 0.738; 3: 0.435; 4: 0.794

###

# Tested on: Lefty1
# measurementDescription: Lefty1 protein binding to printed compounds – biochemical, small-molecule microarray, 635/667 nm fluorescence, primary screen (AID 1139)
# reportedConditions: fluorescence 635/667, higher = more signal
readout: composite z-score
Give bare numbers.

compound | composite z-score
CC(C)c1nc2cc(Br)ccc2c(=O)o1 | -0.0283

Go through the list and state composite z-score for each entry.
1. C=CCNC(=O)[C@@H]1[C@H]2C(=O)O[C@H](c3ccccc3)[C@H](c3ccccc3)N2[C@H](c2ccc(OCCO)cc2)[C@@]12C(=O)Nc1ccc(C#CC3(O)CCCCCC3)cc12
2. C=CCC(OC(C)=O)[C@@H]1[C@@H](N(Cc2cc3ccccc3o2)C(=O)c2cccc3ccccc23)c2cc(OCCCO)ccc2N1C(=O)c1ccc2ccccc2n1 (some centres undefined)

1: 0.497; 2: 0.496

I'm hoping you can list composite z-score for every compound here, please.
1. O=C1C2C=CC(C(O)c3ccc([N+](=O)[O-])cc3)N(Nc3ccccc3F)C2C(=O)N1c1ccccc1 (centres undefined)
2. C[N+](C)(C)CCCC[C@@H]1NC(=O)[C@H]2C[C@@H](C(=O)NCCCCCNC(=O)CS)[C@@H](c3cccc(OCCO)c3)N2C1=O
3. CC(C)(C)N1CC=CC23O[C@@H]4/C=C\CCCOC(=O)C4[C@H]2C(=O)N(CCCO)[C@@H]3C1=O (some centres undefined)
4. C[N+](C)(C)CCCCNC(=O)[C@H]1C[C@H]2C(=O)N[C@@H](Cc3ccccc3)C(=O)N2[C@H]1c1cccc(OCCO)c1
5. COCCOC(=O)N1C(=O)[C@@]2(c3cc(C#CCNC(N)=O)ccc31)[C@H](C(=O)Nc1nc3ccccc3s1)[C@H]1C(=O)O[C@H](c3ccccc3)[C@H](c3ccccc3)N1[C@@H]2c1ccccc1OCCO
6. CC(C)(C)N1CC=CC23O[C@@H]4C=CCOC(=O)[C@@H]4[C@H]2C(=O)N(CCO)[C@@H]3C1=O (some centres undefined)

1: -0.46; 2: -0.383; 3: -0.538; 4: 1.69; 5: 1.39; 6: -0.0106

Provide composite z-score for all items below, preserving their order.
1. CCCCCCc1nc(Cc2cc(OC)c(OC)c(OC)c2)cc2c1[Si](C(C)C)(C(C)C)O[C@H]2c1ccccc1
2. COCCOC(=O)N1C(=O)[C@@]2(c3cc(C#CCCO)ccc31)[C@H](c1ccc(OCCO)cc1)N1[C@H](c3ccccc3)[C@H](c3ccccc3)OC(=O)[C@H]1[C@@H]2C(=O)N1CCCCCCC1
3. Cc1ccccc1C(O)C1C=CC2C(=O)N(c3ccccc3)C(=O)C2N1Nc1ccccc1 (centres undefined)
4. COC(=O)[C@@]1(Cc2ccc(OC)cc2)[C@H]2c3cc(C(=O)N(C)C)[nH]c3C[C@H]2CN1C(=O)c1ccccc1
5. COc1cc(CO)cc(I)c1O[C@H]1C=C(C(=O)NCCO)C[C@@H](NC2CCCCCC2)[C@@H]1O

1. 0.845
2. 1.33
3. 0.55
4. -0.275
5. 1.37
